Biological target: T1, recombinant human CFD, His-tagged (human, UniProt P00746 26-253)
T1 construct: also called rhCFD-His
T1 sequence (P00746 26-253 limits assumed): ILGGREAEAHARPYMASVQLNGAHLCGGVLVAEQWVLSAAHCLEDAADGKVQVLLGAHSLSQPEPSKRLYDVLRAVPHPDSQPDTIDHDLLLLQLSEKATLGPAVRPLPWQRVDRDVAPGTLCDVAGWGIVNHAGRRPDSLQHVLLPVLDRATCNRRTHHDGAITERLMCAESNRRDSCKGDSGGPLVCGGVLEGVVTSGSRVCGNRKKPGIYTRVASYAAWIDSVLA
Assay: SPR MX96
In this section, each of the binders is paired with its reported Kd.
Express it in nM; write the number only.

// below: answered binders
KCD205 (antibody, V domains shown) VH: EVQLQQSGAELVRPGSSVKMSCKTSGNTFTSHGINWVKQRPGQGLEWIGYIYIGNGYNEYNEKFKGKATLTSDTSSSTAYMQLSSLTSEDSAIYFCVRKAYGNYGFDDWGQGTTLTVSS VL: DIQMTQSPSSLSASLGERVSLTCRASQEISGYLSWLQQKPDGTIKRLIYAASTLDSGVPKRFSGSSSGSDYSLTISSLESDDFADYYCLQYASYPFTFGSGTKLEIK; 1.9
KCD103 (antibody, V domains shown, chimeric) VH: QVQLQQPGAELVRPGTSVKLSCKASGYTFTSYWMHWVKQRPGQGLEWIGVIDPSDSYTKYNQKFKDKATLTVETSSSTAYMQLSSLTSEDSAVYYCAGNGYDGSMDYWGQGTSVTVSS VL: DIQMTQTTSSLSASLGDRVTISCRASQDISNSLNWYQQKPDGTVKLLIYYTSRLHSRVPSRFSGSGSGTDYSLTISNLDQEDIATYFCQQANTLPYTFGGGTKLEIK; 3.1

Pending binder:
Fill in: Kd of KCD022 (antibody, V domains shown) VH: DVQLQESGPDLVKPSQSLSLTCTVTGYSITSGYSWHWIRQFPGNTLEWMGYIHYSGSTNYNPSLESRISFTRDTSKNQFFLQLNSVTTEDTATYYCALHFYGYNLGWYFDVWGAGTTVTVSS VL: DIVMTQSHKFMSTSIGDRVIITCKASQDVGTTVAWYQQRPGQSPKLLIYWASTRHTAVPDRFTGSGSGTDFTLTISNVQSEDLADYFCQQYTSYPLTFGAGTQLELK is ___
83
